Provenance of the data: the supplement of paper PMC10065799

phosphorylation enrichment for assorted sequences
system: AncSZ; assay: phosphorylation enrichment, bacterial display (enrichment ratio); higher = better substrate or ligand; peptides without Tyr show the background;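 further: 11-residue human phosphosite peptides and single-mutation variants displayed on the E. coli surface, counted by deep sequencing, each peptide's frequency after selection divided by its frequency in the unselected input library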;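 further: frequency after pTyr selection over input frequency; kinase dosed for 20-30% of maximal phosphorylation in three min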

# sequence input, tested on, phosphorylation enrichment
records = [
    ("KILGTYYETGS [PAX2_Y72_R71T]", "AncSZ", 0.875),
    ("GADDSYYTARS [ZAP70_Y492]", "AncSZ", 1),
    ("SKHHLYSDLQT [PTCHD1_Y84_R82H]", "AncSZ", 0.487),
    ("VVKTVYSLQPP [KNSTRN_Y87]", "AncSZ", 0.862),
    ("EKRDAYVSCLN [GSR_Y150_R153C]", "AncSZ", 0.925),
    ("AVLQLYIFVAT [CFTR_Y1014_P1013L]", "AncSZ", 1.3),
    ("ATVRPYRPFII [LRP5_Y1528_A1525V_YF]", "AncSZ", 0.653),
    ("PGVNYYFRVSA", "AncSZ", 1.11),
    ("TVEDHDFEGGI [TKT_Y563_Y563D_YF]", "AncSZ", 1.06),
    ("IVRSLYEDPED [VHL_Y185_L188P]", "AncSZ", 1.12),
    ("TKQLTYEEQDL [PIK3C3_Y310]", "AncSZ", 1.27),
    ("RRNNSYTCFTA [SLC20A2_Y386_YF]", "AncSZ", 2.81),
    ("NKEAICSGFIR [SMCHD1_Y283_Y283C_YF]", "AncSZ", 0.693),
    ("LDTIQYSKHPP [SQSTM1_Y433]", "AncSZ", 1.01),
]

====

target: MERTK (UniProt Q12866); test: phosphorylation enrichment, bacterial display (enrichment ratio); higher = better substrate or ligand; peptides without Tyr show the background
Sequence (Q12866 whole entry, looked up): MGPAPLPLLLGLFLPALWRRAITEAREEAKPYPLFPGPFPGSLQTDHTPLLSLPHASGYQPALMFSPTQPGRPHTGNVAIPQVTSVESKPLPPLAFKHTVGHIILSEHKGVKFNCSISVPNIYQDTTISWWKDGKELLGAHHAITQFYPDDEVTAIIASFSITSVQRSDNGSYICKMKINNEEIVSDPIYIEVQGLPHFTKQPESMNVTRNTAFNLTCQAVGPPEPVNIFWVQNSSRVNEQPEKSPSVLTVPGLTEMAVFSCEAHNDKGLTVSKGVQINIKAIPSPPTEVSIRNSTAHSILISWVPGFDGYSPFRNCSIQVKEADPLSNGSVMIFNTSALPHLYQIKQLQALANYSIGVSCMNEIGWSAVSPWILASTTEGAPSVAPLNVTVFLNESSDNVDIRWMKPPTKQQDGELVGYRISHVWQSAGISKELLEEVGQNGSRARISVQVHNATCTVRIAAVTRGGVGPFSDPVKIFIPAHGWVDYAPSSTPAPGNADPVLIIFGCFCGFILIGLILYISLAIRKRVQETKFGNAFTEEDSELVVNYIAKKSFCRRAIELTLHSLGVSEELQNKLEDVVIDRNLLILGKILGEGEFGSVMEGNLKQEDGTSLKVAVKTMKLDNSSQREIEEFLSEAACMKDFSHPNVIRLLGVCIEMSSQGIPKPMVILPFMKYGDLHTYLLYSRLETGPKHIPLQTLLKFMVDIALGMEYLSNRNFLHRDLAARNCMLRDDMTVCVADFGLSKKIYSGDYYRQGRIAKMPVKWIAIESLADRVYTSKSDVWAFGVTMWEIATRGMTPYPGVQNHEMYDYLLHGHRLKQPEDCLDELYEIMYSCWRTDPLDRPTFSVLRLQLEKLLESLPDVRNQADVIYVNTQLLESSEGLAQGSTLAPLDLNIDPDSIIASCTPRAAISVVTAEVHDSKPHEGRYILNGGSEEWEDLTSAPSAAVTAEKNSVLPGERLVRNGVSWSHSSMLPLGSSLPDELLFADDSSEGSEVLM
observed property: phosphorylation enrichment

# sequence input, observed property, assay value
measured = [
    ("LKLIQYHLTQQ [AKAP4_Y554]", "phosphorylation enrichment", 1.15),
    ("SGKSEYLLPVA [MYLK_Y611_R607G]", "phosphorylation enrichment", 0.397),
    ("KSLFHYRQYSA [CPS1_Y1491]", "phosphorylation enrichment", 0.469),
    ("QTPVLYAMLFH [MPZ_Y220_D224Y_YF]", "phosphorylation enrichment", 7.73),
    ("ISDEAYVMAGV [ERBB2_Y772_L768S]", "phosphorylation enrichment", 0.436),
    ("PLCPDYQEPSR [DDR2_Y481_R478C]", "phosphorylation enrichment", 0.854),
    ("TTKAKYKTPIF [PLD2_Y573_T577I_YF]", "phosphorylation enrichment", 0.495),
    ("YRIGPYQPSVP [MATR3_Y784_N787S]", "phosphorylation enrichment", 0.425),
    ("CDKEYYSVHNK [MET_Y1235_Y1230C]", "phosphorylation enrichment", 0.573),
    ("LDMSQYFRLFN [CPT2_Y217]", "phosphorylation enrichment", 0.755),
    ("IHTEFYDGLFP [BCR_Y561_K558T]", "phosphorylation enrichment", 1.02),
    ("PMQLPYDSTWE [PDGFRB_Y589]", "phosphorylation enrichment", 0.573),
    ("KLADMYGGGED [CDH1_Y876]", "phosphorylation enrichment", 0.436),
    ("WTAHSYRMGSA [ARHGEF7_Y785_T790A]", "phosphorylation enrichment", 0.377),
]

====

molecular target: EPHB2 (UniProt P29323); experiment: phosphorylation enrichment, bacterial display (enrichment ratio); higher = better substrate or ligand; peptides without Tyr show the background
Sequence (P29323 whole entry, looked up): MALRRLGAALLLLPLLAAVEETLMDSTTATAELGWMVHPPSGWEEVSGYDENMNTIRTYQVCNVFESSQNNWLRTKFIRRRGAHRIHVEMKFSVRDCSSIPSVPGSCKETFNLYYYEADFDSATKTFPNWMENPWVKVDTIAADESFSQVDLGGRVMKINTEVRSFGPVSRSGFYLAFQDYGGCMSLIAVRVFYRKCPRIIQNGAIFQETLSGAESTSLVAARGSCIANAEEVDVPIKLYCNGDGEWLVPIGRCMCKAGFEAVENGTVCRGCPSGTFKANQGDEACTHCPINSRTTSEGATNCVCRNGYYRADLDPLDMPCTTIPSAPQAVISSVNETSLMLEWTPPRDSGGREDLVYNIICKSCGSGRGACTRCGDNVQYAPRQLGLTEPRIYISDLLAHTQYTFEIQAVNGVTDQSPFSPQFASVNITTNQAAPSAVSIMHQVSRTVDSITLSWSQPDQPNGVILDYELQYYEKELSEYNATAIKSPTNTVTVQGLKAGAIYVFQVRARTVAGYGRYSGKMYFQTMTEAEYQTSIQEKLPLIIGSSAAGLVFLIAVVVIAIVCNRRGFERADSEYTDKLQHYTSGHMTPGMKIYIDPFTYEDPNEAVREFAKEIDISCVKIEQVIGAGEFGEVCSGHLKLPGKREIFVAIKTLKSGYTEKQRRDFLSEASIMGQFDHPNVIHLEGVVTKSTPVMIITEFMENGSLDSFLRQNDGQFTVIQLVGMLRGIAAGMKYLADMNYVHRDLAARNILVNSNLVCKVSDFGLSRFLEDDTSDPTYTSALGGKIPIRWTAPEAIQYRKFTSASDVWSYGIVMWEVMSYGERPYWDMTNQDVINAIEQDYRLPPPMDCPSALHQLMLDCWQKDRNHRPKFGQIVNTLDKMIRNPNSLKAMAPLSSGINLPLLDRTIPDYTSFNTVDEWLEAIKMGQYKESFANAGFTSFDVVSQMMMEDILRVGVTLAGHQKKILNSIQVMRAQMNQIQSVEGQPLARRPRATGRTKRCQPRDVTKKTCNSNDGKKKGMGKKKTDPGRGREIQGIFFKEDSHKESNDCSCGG

# sequence input, tested on, phosphorylation enrichment
rows = [
    ("MKALGYFAVVK [OPA1_Y498_T503K]", "EPHB2 (UniProt P29323)", 0.569),
    ("YLRTGYSVPYG [TGM1_Y370]", "EPHB2 (UniProt P29323)", 0.534),
    ("RLLVVYTWTQR [HBB_Y36_P37T]", "EPHB2 (UniProt P29323)", 1.12),
    ("KLLPEYPGILS [DHFR2_Y163_V166I]", "EPHB2 (UniProt P29323)", 0.458),
    ("SSREGYVRHHN [FAM83B_Y433_S435R]", "EPHB2 (UniProt P29323)", 0.445),
    ("VMAALYGRLFE [BTD_Y536_T532M_YF]", "EPHB2 (UniProt P29323)", 0.743),
    ("PKEEPYKMQEK [SLC5A3_Y565_Q566K]", "EPHB2 (UniProt P29323)", 0.403),
    ("LTTPTFGDLNH [TUBB_Y222_Y222F]", "EPHB2 (UniProt P29323)", 0.384),
    ("FIATQYSLRPR [LBR_Y166_YF]", "EPHB2 (UniProt P29323)", 0.518),
    ("MASISYDYCRV [BST2_Y6_T4I]", "EPHB2 (UniProt P29323)", 3.29),
    ("TNFRLYLRSLE [MTM1_Y71_YF]", "EPHB2 (UniProt P29323)", 0.782),
    ("QDGFSYLSRQM [LDLR_Y847_P848L_YF]", "EPHB2 (UniProt P29323)", 0.797),
    ("VQEDIYDEFVV [ALDH2_Y332_E337V]", "EPHB2 (UniProt P29323)", 0.827),
    ("DRLASYRDKVR [KRT12_Y139_L140R]", "EPHB2 (UniProt P29323)", 0.338),
]

====

target: Jak2 (UniProt O60674); assay: phosphorylation enrichment, bacterial display (enrichment ratio); higher = better substrate or ligand; peptides without Tyr show the background
Sequence (O60674 whole entry, looked up): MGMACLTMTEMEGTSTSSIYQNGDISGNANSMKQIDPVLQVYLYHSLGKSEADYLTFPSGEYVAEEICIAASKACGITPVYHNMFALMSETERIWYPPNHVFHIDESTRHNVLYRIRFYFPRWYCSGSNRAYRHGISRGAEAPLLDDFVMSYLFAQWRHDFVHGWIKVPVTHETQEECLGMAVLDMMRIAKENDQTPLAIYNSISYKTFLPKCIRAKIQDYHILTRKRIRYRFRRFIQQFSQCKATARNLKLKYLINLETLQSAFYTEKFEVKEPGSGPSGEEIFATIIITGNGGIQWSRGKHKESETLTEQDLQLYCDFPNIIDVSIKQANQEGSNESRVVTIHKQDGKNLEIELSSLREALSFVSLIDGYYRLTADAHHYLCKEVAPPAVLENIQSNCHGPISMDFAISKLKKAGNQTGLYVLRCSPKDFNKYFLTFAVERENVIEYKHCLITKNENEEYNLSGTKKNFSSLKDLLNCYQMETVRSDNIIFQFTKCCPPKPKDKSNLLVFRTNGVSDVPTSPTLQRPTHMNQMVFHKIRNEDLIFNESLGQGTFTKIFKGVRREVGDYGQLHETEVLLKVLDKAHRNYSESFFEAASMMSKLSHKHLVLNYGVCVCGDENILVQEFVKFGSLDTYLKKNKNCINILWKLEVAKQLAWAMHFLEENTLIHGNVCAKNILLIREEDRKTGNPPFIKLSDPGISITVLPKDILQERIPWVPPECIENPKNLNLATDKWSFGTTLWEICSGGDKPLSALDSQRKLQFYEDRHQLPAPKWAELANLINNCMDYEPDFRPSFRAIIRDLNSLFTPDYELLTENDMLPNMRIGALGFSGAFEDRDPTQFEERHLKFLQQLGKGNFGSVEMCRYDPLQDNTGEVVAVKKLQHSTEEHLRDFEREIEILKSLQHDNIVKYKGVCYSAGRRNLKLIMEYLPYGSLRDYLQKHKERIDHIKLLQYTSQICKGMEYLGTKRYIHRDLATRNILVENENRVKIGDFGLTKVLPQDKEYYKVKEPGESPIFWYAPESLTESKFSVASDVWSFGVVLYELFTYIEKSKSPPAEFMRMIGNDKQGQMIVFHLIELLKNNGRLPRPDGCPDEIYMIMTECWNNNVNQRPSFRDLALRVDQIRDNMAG
phosphorylation enrichment for assorted sequences
observed property: phosphorylation enrichment

# sequence input, tested on, assay value
measured = [
    ("HRAVEYLLMGI [RAD23A_Y197_T200M]", "Jak2 (UniProt O60674)", 0.921),
    ("ILNANYMAKRL [GLDC_Y839]", "Jak2 (UniProt O60674)", 0.436),
    ("QTPVLYTMLDH [MPZ_Y220_A221T]", "Jak2 (UniProt O60674)", 0.907),
    ("PKGIRYGQGAG [CSRP3_Y73_G72R]", "Jak2 (UniProt O60674)", 0.521),
    ("EIIPFYGMSTY [FNDC3B_Y175]", "Jak2 (UniProt O60674)", 0.768),
    ("LSSEMYVKSYT [F5_Y2149]", "Jak2 (UniProt O60674)", 1.12),
    ("KMKGEYFRFLA [YWHAG_Y130_D129E_YF]", "Jak2 (UniProt O60674)", 2.04),
    ("ISDEAYVMAGV [ERBB2_Y772_L768S]", "Jak2 (UniProt O60674)", 0.656),
    ("FVGGFYGGCNE [CTSC_Y352_YF]", "Jak2 (UniProt O60674)", 1.27),
    ("SVMAEYGLYAA [VSX2_Y219_G223A]", "Jak2 (UniProt O60674)", 0.579),
    ("ARVDTYCRHNY [HLA-DRB1_Y107_A103R]", "Jak2 (UniProt O60674)", 0.798),
    ("HNVPICEGYAL [ACTC1_Y168_Y168C]", "Jak2 (UniProt O60674)", 0.895),
    ("KLIETYSSKNY [PLP1_Y50_F51S]", "Jak2 (UniProt O60674)", 0.653),
    ("NYAKMYCNPDA [KNL1_Y489]", "Jak2 (UniProt O60674)", 1.17),
]

====

molecular target: EPHB1 (UniProt P54762); assay: phosphorylation enrichment, bacterial display (enrichment ratio); higher = better substrate or ligand; peptides without Tyr show the background
Sequence (P54762 whole entry, looked up): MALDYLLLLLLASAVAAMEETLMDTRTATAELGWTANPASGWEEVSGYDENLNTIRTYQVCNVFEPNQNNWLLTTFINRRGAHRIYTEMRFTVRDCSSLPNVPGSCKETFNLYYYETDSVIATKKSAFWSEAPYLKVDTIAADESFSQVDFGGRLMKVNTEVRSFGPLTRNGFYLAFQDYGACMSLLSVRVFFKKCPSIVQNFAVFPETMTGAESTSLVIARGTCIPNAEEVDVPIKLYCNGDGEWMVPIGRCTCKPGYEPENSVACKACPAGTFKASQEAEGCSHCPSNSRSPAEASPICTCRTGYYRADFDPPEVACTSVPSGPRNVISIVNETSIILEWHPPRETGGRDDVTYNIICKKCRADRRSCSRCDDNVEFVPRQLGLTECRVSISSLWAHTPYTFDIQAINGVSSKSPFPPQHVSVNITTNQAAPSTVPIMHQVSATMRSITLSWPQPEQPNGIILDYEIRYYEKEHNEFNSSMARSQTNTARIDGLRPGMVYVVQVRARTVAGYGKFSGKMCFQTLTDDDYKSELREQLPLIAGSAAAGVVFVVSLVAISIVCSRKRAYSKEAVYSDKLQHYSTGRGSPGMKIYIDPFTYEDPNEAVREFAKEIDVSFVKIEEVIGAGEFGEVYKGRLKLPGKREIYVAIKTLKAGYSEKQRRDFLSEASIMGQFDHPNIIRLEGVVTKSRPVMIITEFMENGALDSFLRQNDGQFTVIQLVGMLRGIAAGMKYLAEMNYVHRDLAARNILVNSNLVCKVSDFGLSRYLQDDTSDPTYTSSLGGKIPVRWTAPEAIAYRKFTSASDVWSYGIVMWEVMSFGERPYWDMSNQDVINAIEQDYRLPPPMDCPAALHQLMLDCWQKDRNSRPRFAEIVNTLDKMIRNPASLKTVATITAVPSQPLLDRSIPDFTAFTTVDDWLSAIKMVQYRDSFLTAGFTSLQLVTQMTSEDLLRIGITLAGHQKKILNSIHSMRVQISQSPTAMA
Please use 1 whenever phosphorylation enrichment is not below 0.7, and 0 whenever it is.

# sequence input, label value
measured = [
    ("LGRTVYADCLA [ABCA4_Y2063_L2060R]", 1),
    ("SDPIIYTLENI [ADGRE1_Y534]", 0),
    ("RQSRNYLGGFA [SYK_Y47]", 0),
    ("LRTAVYHEILI [CREBBP_Y1450]", 1),
    ("EFAAGYNVKFD [GPX4_Y123]", 0),
    ("RRIHSYRCHLW [VHL_Y112_G114C]", 0),
    ("PMDGEYFTLQI [TP53_Y327_L323M]", 1),
    ("DEDEEYEFMNR [ERBB3_Y1197_YF]", 0),
    ("VLTSKHRGGGG [HBA1_Y141_Y141H]", 0),
    ("FSMGCYEISLE [HMGCL_Y198_G203E_YF]", 1),
    ("ECKLFYSRKEG [PTPN11_Y263_L262F]", 0),
    ("CTTIHYNFMWN [TP53_Y234_C238W_YF]", 1),
    ("GRVFVYHLSEQ [ITGAE_Y551_R552H_YF]", 0),
    ("ATARPYRPFII [LRP5_Y1528_YF]", 0),
    ("EILLSDLRTGF [TGM1_Y365_Y365D_YF]", 0),
    ("PLCPDYQEPSR [DDR2_Y481_R478C]", 1),
    ("EFSNQYKATIG [RAB7A_Y37_K32E]", 0),
    ("SWSTSYSGYRY [NKAPL_Y91]", 0),
    ("REETTYLPLTS [ICAM3_Y527_S525T]", 0),
    ("NRKGKYFNVER [ANAPC4_Y469]", 0),
    ("QLDQRYLLVPE [DDX49_Y223]", 0),
    ("MDDPRYGVCPL [ZNF100_Y6_M8V]", 0),
    ("GLIPAYHRFIM [NMNAT1_Y64_V67F]", 0),
    ("LDLSYYPTSSS [EMD_Y182]", 1),
    ("DAHFTYSRYPW [LY75_Y888_D884A]", 1),
    ("SYCYRYRCAAQ [SUMF1_Y344_R349Q]", 0),
    ("IYGASYVPFAA [RBM47_Y541]", 0),
]
